The compounds listed here are annotated with their IC50.
molecular target: hα2A receptor (Homo sapiens); construct: expressed in transfected cells; host or cells: CHO cells, stably transfected; membrane preparation; test: Radioligand binding experiment for α2A-adrenoceptor ([3H]raulwolscine, CHO cell membranes); settings: [3H]raulwolscine binding, read-out: h-α2A pIC50 (converted)
Sequence (P08913 whole entry): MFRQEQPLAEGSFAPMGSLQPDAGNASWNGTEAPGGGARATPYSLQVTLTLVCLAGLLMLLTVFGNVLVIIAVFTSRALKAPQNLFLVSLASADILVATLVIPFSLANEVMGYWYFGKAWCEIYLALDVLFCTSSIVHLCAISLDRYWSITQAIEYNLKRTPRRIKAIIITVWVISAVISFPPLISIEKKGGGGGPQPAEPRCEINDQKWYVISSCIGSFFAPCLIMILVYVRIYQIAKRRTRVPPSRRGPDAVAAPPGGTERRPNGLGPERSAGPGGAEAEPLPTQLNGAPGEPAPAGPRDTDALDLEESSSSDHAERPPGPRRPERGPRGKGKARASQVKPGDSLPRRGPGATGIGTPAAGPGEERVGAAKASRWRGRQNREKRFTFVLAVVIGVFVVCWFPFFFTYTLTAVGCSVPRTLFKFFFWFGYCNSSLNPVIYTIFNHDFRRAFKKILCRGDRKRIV

[
  {
    "LINE_NOTATION": "C/C(=C\\c1ccccc1)CN1CCC(Nc2nccn(-c3cccc(N4CCN(Cc5ccccc5)CC4)c3)c2=O)CC1",
    "UNITS_LABEL": "nM",
    "IC50": 31.6
  },
  {
    "LINE_NOTATION": "C/C(=C\\c1ccccc1)CN1CCC(Nc2nccn(Cc3ccc(CNC(=O)c4ccccc4)cc3)c2=O)CC1",
    "UNITS_LABEL": "nM",
    "IC50": 158
  },
  {
    "LINE_NOTATION": "C/C(=C\\c1ccccc1)CN1CCC(Nc2nccn(-c3cccc(CN4CCCCC4)c3)c2=O)CC1",
    "UNITS_LABEL": "nM",
    "IC50": 0.631
  },
  {
    "LINE_NOTATION": "C/C(=C\\c1ccccc1)CN1CCC(Nc2nccn(CCCN(C(=O)Cc3ccccc3)c3ccccc3)c2=O)CC1",
    "UNITS_LABEL": "nM",
    "IC50": 126
  },
  {
    "LINE_NOTATION": "C/C(=C\\c1ccccc1)CN1CCC(Nc2nccn(Cc3cc(C)on3)c2=O)CC1",
    "UNITS_LABEL": "nM",
    "IC50": 63.1
  },
  {
    "LINE_NOTATION": "COCCN(C)C(=O)c1ccc(-n2ccnc(NC3CCN(C/C(C)=C/c4ccccc4)CC3)c2=O)cc1",
    "UNITS_LABEL": "nM",
    "IC50": 31.6
  },
  {
    "LINE_NOTATION": "COc1ccc(Cn2c(-c3cccc(Br)c3)c(Cl)nc(NC3CCN(C/C(C)=C/c4ccccc4)CC3)c2=O)cc1",
    "UNITS_LABEL": "nM",
    "IC50": 794
  },
  {
    "LINE_NOTATION": "C/C(=C\\c1ccccc1)CN1CCC(Nc2nccn(CCCN(Cc3ccccc3)C(=O)Cc3ccccc3)c2=O)CC1",
    "UNITS_LABEL": "nM",
    "IC50": 200
  }
]

* * *

target: hα2C receptor (Homo sapiens); construct: expressed in transfected cells; host or cells: CHO cells, stably transfected; membrane preparation; test: Radioligand binding experiment for α2C-adrenoceptor ([3H]raulwolscine, CHO cell membranes); settings: [3H]raulwolscine binding, read-out: h-α2C pIC50 (converted)
Sequence (P18825 whole entry): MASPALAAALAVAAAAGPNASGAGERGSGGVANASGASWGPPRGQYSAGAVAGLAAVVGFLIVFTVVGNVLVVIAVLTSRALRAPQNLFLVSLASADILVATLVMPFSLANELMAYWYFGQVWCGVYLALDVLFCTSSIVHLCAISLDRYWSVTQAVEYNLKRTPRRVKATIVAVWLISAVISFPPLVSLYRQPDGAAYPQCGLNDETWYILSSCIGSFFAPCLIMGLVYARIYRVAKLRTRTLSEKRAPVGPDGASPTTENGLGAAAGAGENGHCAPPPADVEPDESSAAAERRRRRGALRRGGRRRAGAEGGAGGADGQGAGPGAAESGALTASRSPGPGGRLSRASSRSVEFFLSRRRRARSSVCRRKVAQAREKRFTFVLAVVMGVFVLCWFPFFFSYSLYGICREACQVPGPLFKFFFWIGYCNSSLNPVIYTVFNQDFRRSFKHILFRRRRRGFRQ
MEASURED_PROPERTY: IC50 (nM)

[
  {
    "MOLECULE": "COCC(=O)NCc1ccc(Cn2ccnc(NC3CCN(C/C(C)=C/c4ccccc4)CC3)c2=O)cc1",
    "EXPERIMENTAL_VALUE": 50.1
  },
  {
    "MOLECULE": "C/C(=C\\c1ccccc1)CN1CCC(Nc2nccn(CCCOc3ccccc3)c2=O)CC1",
    "EXPERIMENTAL_VALUE": 20
  },
  {
    "MOLECULE": "COC(=O)CCCCn1ccnc(NC2CCN(C/C(C)=C/c3ccccc3)CC2)c1=O",
    "EXPERIMENTAL_VALUE": 15.8
  },
  {
    "MOLECULE": "C/C(=C\\c1ccccc1)CN1CCC(Nc2nccn(Cc3ccc(S(C)(=O)=O)cc3)c2=O)CC1",
    "EXPERIMENTAL_VALUE": 25.1
  },
  {
    "MOLECULE": "COc1ccc(Cn2ccnc(NC3CCN(C/C(C)=C/c4ccccc4)CC3)c2=O)cc1",
    "EXPERIMENTAL_VALUE": 31.6
  },
  {
    "MOLECULE": "CC(=O)N1CCN(C(=O)Cn2ccnc(NC3CCN(C/C(C)=C/c4ccccc4)CC3)c2=O)CC1",
    "EXPERIMENTAL_VALUE": 25.1
  },
  {
    "MOLECULE": "C/C(=C\\c1ccccc1)CN1CCC(Nc2nccn(-c3cccc(CNCC4CCCO4)c3)c2=O)CC1 (stereo not shown)",
    "EXPERIMENTAL_VALUE": 1.26
  },
  {
    "MOLECULE": "COCCOCCn1ccnc(N(C)C2CCN(C/C(C)=C/c3ccccc3)CC2)c1=O",
    "EXPERIMENTAL_VALUE": 39.8
  },
  {
    "MOLECULE": "C/C(=C\\c1ccccc1)CN1CCC(Nc2nccn(CCn3cccc3)c2=O)CC1",
    "EXPERIMENTAL_VALUE": 31.6
  },
  {
    "MOLECULE": "CCCN(C)C(=O)Cn1ccnc(NC2CCN(C/C(C)=C/c3ccccc3)CC2)c1=O",
    "EXPERIMENTAL_VALUE": 10
  },
  {
    "MOLECULE": "C/C(=C\\c1ccccc1)CN1CCC(Nc2nccn(Cc3ccc(CNS(=O)(=O)/C=C/c4ccccc4)cc3)c2=O)CC1",
    "EXPERIMENTAL_VALUE": 39.8
  },
  {
    "MOLECULE": "C/C(=C\\c1ccccc1)CN1CCC(Nc2nccn(-c3ccsc3)c2=O)CC1",
    "EXPERIMENTAL_VALUE": 6.31
  },
  {
    "MOLECULE": "C/C(=C\\c1ccccc1)CN1CCC(Nc2nccn(Cc3ccc(CNC(=O)Cc4ccccc4)cc3)c2=O)CC1",
    "EXPERIMENTAL_VALUE": 25.1
  },
  {
    "MOLECULE": "CCCNC(=O)NCc1ccc(Cn2ccnc(NC3CCN(C/C(C)=C/c4ccccc4)CC3)c2=O)cc1",
    "EXPERIMENTAL_VALUE": 79.4
  },
  {
    "MOLECULE": "C/C(=C\\c1ccccc1)CN1CCC(Nc2nccn(-c3ccccn3)c2=O)CC1 [6-9]",
    "EXPERIMENTAL_VALUE": 5.01
  },
  {
    "MOLECULE": "C/C(=C\\c1ccccc1)CN1CCC(Nc2nccn(CN3C(=O)c4ccccc4C3=O)c2=O)CC1",
    "EXPERIMENTAL_VALUE": 6.31
  },
  {
    "MOLECULE": "COCCOCCn1ccnc(NC2CCN(C/C(C)=C/c3ccccc3)CC2)c1=O",
    "EXPERIMENTAL_VALUE": 39.8
  },
  {
    "MOLECULE": "O=c1c(NC2CCN(C/C=C/c3ccccc3)CC2)nccn1Cc1ccc(Br)cc1",
    "EXPERIMENTAL_VALUE": 316
  },
  {
    "MOLECULE": "C/C(=C\\c1ccccc1)CN1CCC(Nc2nccn(CC(=O)N(CCO)Cc3ccccc3)c2=O)CC1",
    "EXPERIMENTAL_VALUE": 3.16
  },
  {
    "MOLECULE": "C/C(=C\\c1ccccc1)CN1CCC(Nc2nccn(-c3ccncc3)c2=O)CC1",
    "EXPERIMENTAL_VALUE": 7.94
  },
  {
    "MOLECULE": "C/C(=C\\c1ccccc1)CN1CCC(Nc2nccn(Cc3ccc(Br)cc3)c2=O)CC1",
    "EXPERIMENTAL_VALUE": 50.1
  },
  {
    "MOLECULE": "CCCC(=O)NCCCn1ccnc(NC2CCN(C/C(C)=C/c3ccccc3)CC2)c1=O",
    "EXPERIMENTAL_VALUE": 12.6
  },
  {
    "MOLECULE": "C/C(=C\\c1ccccc1)CN1CCC(Nc2nccn(CCCNC(=O)CC3CCCC3)c2=O)CC1",
    "EXPERIMENTAL_VALUE": 12.6
  },
  {
    "MOLECULE": "C/C(=C\\c1ccccc1)CN1CCC(Nc2nccn(CC(=O)N(CCN3CCCC3)Cc3ccc(F)cc3)c2=O)CC1",
    "EXPERIMENTAL_VALUE": 0.316
  },
  {
    "MOLECULE": "C/C(=C\\c1ccccc1)CN1CCC(Nc2nccn(CC(=O)N3CCN(c4ccc(C)c(C)c4)CC3)c2=O)CC1",
    "EXPERIMENTAL_VALUE": 31.6
  },
  {
    "MOLECULE": "C/C(=C\\c1ccccc1)CN1CCN(c2nccn(Cc3ccc(Cl)s3)c2=O)CC1",
    "EXPERIMENTAL_VALUE": 39.8
  },
  {
    "MOLECULE": "C/C(=C\\c1ccccc1)CN1CCC(Nc2nccn(Cc3ccc(C(F)(F)F)cc3)c2=O)CC1",
    "EXPERIMENTAL_VALUE": 79.4
  },
  {
    "MOLECULE": "CC(=O)NCc1ccc(Cn2ccnc(NC3CCN(C/C(C)=C/c4ccccc4)CC3)c2=O)cc1",
    "EXPERIMENTAL_VALUE": 31.6
  },
  {
    "MOLECULE": "C/C(=C\\c1ccccc1)CN1CCC(Nc2nccn(CCCN(C)CC(=O)c3ccccc3)c2=O)CC1",
    "EXPERIMENTAL_VALUE": 10
  },
  {
    "MOLECULE": "C/C(=C\\c1ccccc1)CN1CCC(Nc2nccn(CCCNC(=O)c3ccccc3)c2=O)CC1",
    "EXPERIMENTAL_VALUE": 3.16
  },
  {
    "MOLECULE": "O=c1c(NC2CCN(C/C=C/c3ccccc3)CC2)nccn1Cc1ccc2ccccc2n1",
    "EXPERIMENTAL_VALUE": 126
  },
  {
    "MOLECULE": "C=CCN1CCN(C(=O)Cn2ccnc(NC3CCN(C/C(C)=C/c4ccccc4)CC3)c2=O)CC1",
    "EXPERIMENTAL_VALUE": 3.16
  },
  {
    "MOLECULE": "C/C(=C\\c1ccccc1)CN1CCN(c2nccn(C/C=C/c3ccccc3)c2=O)CC1",
    "EXPERIMENTAL_VALUE": 126
  },
  {
    "MOLECULE": "CCOC(=O)CCCCn1ccnc(NC2CCN(C/C(C)=C/c3ccccc3)CC2)c1=O",
    "EXPERIMENTAL_VALUE": 15.8
  }
]
